Could you please report measured TGI for the items listed next?
Test system: HL-60(TB) leukemia
Assay Summary: NCI tumour cell line growth inhibition, 48 h
Answers are plain numbers, in µM.

Hi there! I need TGI for each item below, if you can.
1. O=c1oc2ccc(-c3ccc(F)cc3F)cc2c(=O)n1-c1cccc(C(F)(F)F)c1
2. CN(C)CCCNc1c2ccc(Cl)cc2nc2c1oc1ccc(Cl)cc12
3. C[C@@H](Nc1c(C#N)cnc2ccc(-c3cnc(Cl)c(NS(C)(=O)=O)c3)cc12)c1ccccc1

Result:
[2.89, 4.81, 6.48]

* * *

Field: GI50. Provide a value for each of the molecules that follow.
Tested on: NCI/ADR-RES ovarian
Assay Summary: NCI tumour cell line growth inhibition, 48 h

Below, 4 molecules whose answers are already recorded.
O=[N+]([O-])c1ccc(-c2nnc(SCc3ccc(O)c4ncccc34)n2-c2ccccc2)cc1    7.35 µM
O=c1oc2ccc(-c3ccc(F)cc3F)cc2c(=O)n1-c1cccc(C(F)(F)F)c1    1.27 µM
CCc1cc(OC(=O)N2CCC(N3CCCCC3)CC2)ccc1Nc1cc(-c2ccc(-n3cccn3)cc2)[nH]n1    2.94 µM
C[C@@H](Nc1c(C#N)cnc2ccc(-c3cnc(Cl)c(NS(C)(=O)=O)c3)cc12)c1ccccc1    1.61 µM

Read the next record carefully.
Ask: # assay system NCI/ADR-RES ovarian: give GI50 of `CN(C)CCCNc1c2ccc(Cl)cc2nc2c1oc1ccc(Cl)cc12`
Result: 2.31 µM
